Origin of the recorded values: paper PMC12059179

Recorded Kd by entry
- assayed system: KtrA (VaKtrA, KtrAC3H) (Vibrio alginolyticus, UniProt O87952)
- Construct: full-length cytosolic RCK subunit, C-terminal 3C-cleavable His tag (KtrAC3H), eluted with imidazole (tag kept), expressed in E. coli C43(DE3)ΔacrAB; homooctameric ring
- Sequence (O87952 1-220): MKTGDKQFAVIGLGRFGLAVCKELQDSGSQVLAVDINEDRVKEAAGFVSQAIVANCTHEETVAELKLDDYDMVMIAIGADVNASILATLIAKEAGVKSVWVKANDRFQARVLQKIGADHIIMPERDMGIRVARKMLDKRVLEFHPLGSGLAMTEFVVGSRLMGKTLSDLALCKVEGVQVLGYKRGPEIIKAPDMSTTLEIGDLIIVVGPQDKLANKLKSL
- test method notes: isothermal titration calorimetry
- assay setup: pH 8, 24 °C, 20 mM HEPES, 140 mM NaCl, 60 mM KCl; one-site fit; no KtrB
// units = nM; emit number, no label

Given the compound `Nc1ncnc2c1ncn2[C@@H]1O[C@H](COP(=O)(O)OP(=O)(O)O)[C@@H](O)[C@H]1O` , what is its reported Kd? 3400

Now turn to the next compound.
Given the compound `Nc1ncnc2c1ncn2[C@@H]1O[C@H](COP(=O)(O)OP(=O)(O)OP(=O)(O)O)[C@@H](O)[C@H]1O` , what is its reported Kd? 2400
